target: UniProt Q16539; assay: TNF-alpha Release Inhibition (LPS-stimulated PBMCs); conditions: pbmc
Sequence (Q16539 whole entry, looked up): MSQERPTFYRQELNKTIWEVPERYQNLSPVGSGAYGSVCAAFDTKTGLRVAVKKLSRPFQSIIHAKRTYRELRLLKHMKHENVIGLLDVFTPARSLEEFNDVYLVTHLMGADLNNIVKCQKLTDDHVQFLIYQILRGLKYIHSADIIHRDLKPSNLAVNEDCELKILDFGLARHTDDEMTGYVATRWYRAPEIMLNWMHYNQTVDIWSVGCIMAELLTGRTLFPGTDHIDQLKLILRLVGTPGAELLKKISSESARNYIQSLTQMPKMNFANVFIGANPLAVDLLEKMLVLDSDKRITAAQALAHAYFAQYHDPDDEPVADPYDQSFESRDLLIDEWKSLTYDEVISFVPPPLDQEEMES
pIC50: −log10 of the molar value.
# label = 1 if pIC50 >= 7 else -1

* Fc1ccc(-c2[nH]c3ccccc3c2-c2ccncc2)cc1 | -1
* COc1ccc2c(-c3ccncc3)c(-c3ccc(F)cc3)[nH]c2n1 | -1
* CCCCOc1cc(O)nc2[nH]c(-c3ccc(F)cc3)c(-c3ccncc3)c12 | 1
* COc1ccc2c(-c3ccncc3)c(-c3cccc(F)c3)[nH]c2c1 | -1
* Nc1cc(OCc2ccc(F)cc2)c2c(-c3ccncc3)c(-c3ccc(F)cc3)[nH]c2n1 | 1
* Fc1ccc(-c2[nH]c3nc(NCc4ccccc4)ccc3c2-c2ccncc2)cc1 | -1
* COc1ccc2c(-c3ccncc3)c(-c3ccc(F)cc3)[nH]c2c1 | -1
* CN(C)c1ccc2c(-c3ccncc3)c(-c3ccc(F)cc3)[nH]c2n1 | -1
* COc1ccc2c(-c3ccncc3)c(-c3ccc(I)cc3)[nH]c2c1 | -1
* Oc1ccc2c(-c3ccncc3)c(-c3ccc(F)cc3)[nH]c2n1 | -1
* Nc1ccc2c(-c3ccncc3)c(-c3cccc(Cl)c3)[nH]c2n1 | 1
* Nc1ccc2c(-c3ccncc3)c(-c3cccc(I)c3)[nH]c2n1 | 1
* Nc1ccc2c(-c3ccncc3)c(-c3ccc(F)c(F)c3)[nH]c2n1 | 1
* Fc1ccc(-c2[nH]c3ncccc3c2-c2ccncc2)cc1 | -1
* CCCCOc1cc(OC)nc2[nH]c(-c3ccc(F)cc3)c(-c3ccncc3)c12 | 1
* CCOc1ccc(-c2[nH]c3nc(N)ccc3c2-c2ccncc2)cc1Cl | 1
* Nc1ccc2c(-c3ccncc3)c(-c3ccc(F)cc3)[nH]c2c1 | -1
